System: CAL-85-1
Experiment: drug sensitivity score (DSS), CellTox Green (DSS (AUC-based score)); higher = stronger drug effect (viability inhibition or cytotoxicity); extreme values may be limits of the assay
Conditions: incubation time: 72 h
Property label: drug sensitivity score
# output: bare number, no unit

CCN1CCN(c2ccc(Nc3cc(N(C)C(=O)Nc4c(Cl)c(OC)cc(OC)c4Cl)ncn3)cc2)CC1    0
Clc1ccc(C(c2ccccc2Cl)C(Cl)Cl)cc1 (configuration not stated)    0
CN1CC[C@H](c2c(O)cc(O)c3c(=O)cc(-c4ccccc4Cl)oc23)[C@H](O)C1    15.3
CS(=O)(=O)c1ccc(C(=O)Nc2ccc(Cl)c(-c3ccccn3)c2)c(Cl)c1    0
C[C@]1(c2nc3c(C(N)=O)cccc3[nH]2)CCCN1    0.454

Observed drug sensitivity score, CAL-85-1, "S=c1[nH]cnc2nc[nH]c12" : 0

Observed drug sensitivity score, CAL-85-1, "Nc1nc(Cl)nc2c1ncn2[C@H]1C[C@H](O)[C@@H](CO)O1" : 0
